Field: pIC50 Category (Activity). Provide a value for each of the substances that follow.
Target: Recombinant human FAP (R&D systems, #3715-SE) (human)
Sequence: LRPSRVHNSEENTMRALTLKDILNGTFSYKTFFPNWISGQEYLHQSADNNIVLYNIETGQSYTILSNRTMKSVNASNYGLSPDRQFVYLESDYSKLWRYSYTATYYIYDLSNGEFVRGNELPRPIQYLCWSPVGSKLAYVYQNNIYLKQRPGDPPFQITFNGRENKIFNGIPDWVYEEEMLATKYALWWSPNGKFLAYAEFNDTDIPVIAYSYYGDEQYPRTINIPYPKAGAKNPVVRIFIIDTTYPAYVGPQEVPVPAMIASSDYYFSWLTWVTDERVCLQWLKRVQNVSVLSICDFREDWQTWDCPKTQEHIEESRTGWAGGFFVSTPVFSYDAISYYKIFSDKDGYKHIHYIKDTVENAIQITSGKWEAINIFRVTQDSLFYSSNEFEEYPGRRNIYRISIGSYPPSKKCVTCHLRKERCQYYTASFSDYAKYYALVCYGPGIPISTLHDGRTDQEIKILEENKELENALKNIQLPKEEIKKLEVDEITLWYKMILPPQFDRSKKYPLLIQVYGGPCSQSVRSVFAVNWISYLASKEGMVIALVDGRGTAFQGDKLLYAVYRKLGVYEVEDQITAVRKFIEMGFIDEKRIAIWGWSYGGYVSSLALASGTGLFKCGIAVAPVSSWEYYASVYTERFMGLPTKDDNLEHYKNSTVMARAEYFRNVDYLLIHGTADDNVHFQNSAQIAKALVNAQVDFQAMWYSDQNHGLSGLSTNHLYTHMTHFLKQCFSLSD

A selection of reference data follows.
[[record]]
substance = "DOTA-Ttds-Hci-[Cys(3MeBn)-Pro-Pro-Thr-Gln-Phe-Cys]-Bal-OH (peptide)"
reported_metric = "pIC50 Category (Activity)"
assay_result = "< 6 pIC50"

[[record]]
substance = "Ac-Met-[Cys(3MeBn)-Pro-Pro-Thr-Glu-Phe-Cys]-Asp-His-Mpa-Arg-Asp-NH2 (peptide)"
reported_metric = "pIC50 Category (Activity)"
assay_result = "> 8 pIC50"

[[record]]
substance = "Hex-[Cys(tMeBn(DOTA-AET))-Nmg-Pro-Thr-Gln-Phe-Cys]-OH (peptide)"
reported_metric = "pIC50 Category (Activity)"
assay_result = "> 8 pIC50"


Now take the following substance into account.
Q: Form entry - test system: Recombinant human FAP (R&D systems, #3715-SE) (human); read-out: pIC50 Category (Activity); substance: DOTA-Ttds-Nle-[Cys(3MeBn)-Pro-Pro-Thr-Glu-Phe-Cys]-Asp-His-Phe-Arg-Asp-NH2 (peptide)
A: > 8 pIC50

* * *

Field: pIC50 Category (Activity). Provide a value for each of the substances that follow.
Target: Recombinant human FAP (R&D systems, #3715-SE) (human)
Sequence: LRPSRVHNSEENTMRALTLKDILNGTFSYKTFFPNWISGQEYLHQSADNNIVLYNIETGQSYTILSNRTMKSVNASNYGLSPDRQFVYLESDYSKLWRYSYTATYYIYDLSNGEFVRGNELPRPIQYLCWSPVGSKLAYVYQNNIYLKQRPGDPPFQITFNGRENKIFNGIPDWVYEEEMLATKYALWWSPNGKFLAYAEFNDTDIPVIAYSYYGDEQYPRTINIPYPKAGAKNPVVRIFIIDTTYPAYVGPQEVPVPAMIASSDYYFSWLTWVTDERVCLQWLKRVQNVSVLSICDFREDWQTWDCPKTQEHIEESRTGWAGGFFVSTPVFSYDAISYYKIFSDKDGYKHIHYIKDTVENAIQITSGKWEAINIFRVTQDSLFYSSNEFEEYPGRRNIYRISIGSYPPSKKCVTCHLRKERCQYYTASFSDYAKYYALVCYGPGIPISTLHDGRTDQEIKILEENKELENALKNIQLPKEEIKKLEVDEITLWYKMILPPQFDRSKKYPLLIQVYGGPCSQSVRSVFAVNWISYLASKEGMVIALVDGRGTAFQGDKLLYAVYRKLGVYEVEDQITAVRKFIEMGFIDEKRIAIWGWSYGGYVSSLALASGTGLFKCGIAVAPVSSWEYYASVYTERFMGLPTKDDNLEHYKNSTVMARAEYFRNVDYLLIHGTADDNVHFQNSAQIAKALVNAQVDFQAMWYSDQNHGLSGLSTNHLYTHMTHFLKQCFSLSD

A selection of reference data follows.
[[record]]
substance = "DOTA-Ttds-Nle-[Cys(3MeBn)-Pro-Pro-Thr-Glu-Phe-Cys]-Asp-Pamb-Arg-NH2 (peptide)"
reported_metric = "pIC50 Category (Activity)"
assay_result = "> 8 pIC50"

[[record]]
substance = "Hex-[Cys(3MeBn)-Pro-Pro-Ala-Glu-Phe-Cys]-NH2 (peptide)"
reported_metric = "pIC50 Category (Activity)"
assay_result = "< 6 pIC50"

[[record]]
substance = "Hex-[Cys(tMeBn(DOTA-AET))-Pro-Pro-Thr-Gln-Phe-Cys]-Bhf-OH (peptide)"
reported_metric = "pIC50 Category (Activity)"
assay_result = "> 8 pIC50"

[[record]]
substance = "Hex-[Cys(3MeBn)-Pro-Pro-Thr-Glu-Nphe-Cys]-NH2 (peptide)"
reported_metric = "pIC50 Category (Activity)"
assay_result = "< 6 pIC50"

[[record]]
substance = "Hex-[Cys(3MeBn)-Pro-Pro-Thr-Glu-Phe-Cys]-Asp-His-Ppa-arg-Ttds-Lys(DOTA)-NH2 (peptide)"
reported_metric = "pIC50 Category (Activity)"
assay_result = "> 8 pIC50"

[[record]]
substance = "Ac-Met-[Cys(3MeBn)-Pro-Pro-Thr-Glu-Phe-Cys]-Asp-his-Phe-Arg-Asp-NH2 (peptide)"
reported_metric = "pIC50 Category (Activity)"
assay_result = "> 8 pIC50"

[[record]]
substance = "Ac-Met-[Cys(3MeBn)-Gly-Pro-Thr-Glu-Phe-Cys]-Asp-His-Phe-Arg-Asp-NH2 (peptide)"
reported_metric = "pIC50 Category (Activity)"
assay_result = "> 8 pIC50"


Now take the following substance into account.
Q: Report pIC50 Category (Activity) for Hex-[Cys(tMeBn(DOTA-AET))-Pro-Pro-Thr-Gln-Phe-Cys]-Nmg-OH (peptide) please.
A: > 8 pIC50
